Target: recombinant human NaV1.8 stably transfected HEK cells (Homo sapiens)
Construct: expressed in transfected cells; host or cells: HEK cells, stably transfected
Test: Compound profiling on NaV1.8, human NaV1.8 cell line, SyncroPatch384PE automated patch clamp assay (Example 102, first set of compounds, Table 16)
Assay type: cell-based
Conditions: inactivated state block (P2 measurement), human NaV1.8 HEK cells, Table 16 (first set of compounds), read-out: P2IC50
Method: Compound Profiling on NaV1.8—Human NaV1.8 Cell Line—SyncroPatch384PE Assay Compounds were tested on recombinant human NaV1.8 stably transfected HEK cells using the SyncroPatch384PE system, an automated patch clamp device. […] Compounds were tested in triplicate in 0.1% DMSO and 0.030% Pluronic Acid. […] Compounds were then applied by the SynchroPatch into each well and the current was recorded for five minutes in EC, followed by application of tetracaine to achieve full block at the end of the experiment. […]
metric name: IC50

> print(dat)
                                   molecule                           target.of.assay         result
1  Cc1cc(F)ccc1Oc1nnc(C(F)(F)F)c(C)c1C(=O)Nc1ccnc(C(N)=O)c1 [Compound 1408]  recombinant human NaV1.8 stably transfected HEK cells (Homo sapiens)   40 to 200 nM
2  Cc1c(C(F)(F)F)nnc(Oc2ccc(C#N)cc2)c1C(=O)Nc1cccc(S(C)(=N)=O)c1 (stereo not shown) [Compound 21]  recombinant human NaV1.8 stably transfected HEK cells (Homo sapiens)   40 to 200 nM
3  COc1cc(C#N)ccc1Oc1nnc(C(F)(F)F)c(C)c1C(=O)Nc1cccc(C(=O)NC2CCCC2C(N)=O)c1 (stereo not shown) [Compound 1444]  recombinant human NaV1.8 stably transfected HEK cells (Homo sapiens)  200 to 500 nM
4  COc1cc(C#N)ccc1Oc1nnc(-c2ccccc2F)c(C)c1C(=O)Nc1cccc([S@](C)(=N)=O)c1 [Compound 1537]  recombinant human NaV1.8 stably transfected HEK cells (Homo sapiens)    20 to 40 nM
5  Cc1cc(F)ccc1COc1ncc(C(F)(F)F)cc1C(=O)Nc1cccc(S(C)(=O)=O)c1 [Compound 1596]  recombinant human NaV1.8 stably transfected HEK cells (Homo sapiens)  200 to 500 nM
6  Cc1c(Oc2nnc(C(F)(F)F)c(C)c2C(=O)Nc2cccc(S(C)(=N)=O)c2)ccc(Cl)c1F (stereo not shown) [Compound 1486]  recombinant human NaV1.8 stably transfected HEK cells (Homo sapiens)        ≤ 20 nM
7  COc1c(Oc2nnc(C)c(C)c2C(=O)Nc2cccc(S(C)(=N)=O)c2)ccc(F)c1F (stereo not shown) [Compound 1435]  recombinant human NaV1.8 stably transfected HEK cells (Homo sapiens)  200 to 500 nM

====

Biological target: recombinant human NaV1.8 stably transfected HEK cells (Homo sapiens)
Construct: expressed in transfected cells; host or cells: HEK cells, stably transfected
Assay: Compound profiling on NaV1.8, human NaV1.8 cell line, SyncroPatch384PE automated patch clamp assay (Example 115, third set of compounds, Table 27)
Assay type: cell-based
Settings: inactivated state block (P2 measurement), human NaV1.8 HEK cells, Table 27 (third set of compounds), read-out: P2 IC50
Protocol: Compound Profiling on NaV1.8 Human NaV1.8 Cell Line SyncroPatch384PE Assay Compounds were tested on recombinant human NaV1.8 stably transfected HEK cells using the SyncroPatch384PE system, an automated patch clamp device. […] Whole cell patch clamp recordings were conducted according to Nanion's standard procedure for SyncroPatch384PE®. […] The potency of the compounds was assessed on two read-outs, resting state block (P1 measurement) or inactivated state block (P2 measurement) to obtain IC50 values. […]
metric name: IC50

> print(dat)
                                    compound         result
 1  O=C(Nc1ccc[n+]([O-])c1)c1cc(C(F)(F)F)nnc1Oc1ccc(F)cc1F [Compound 60]      1 to 5 µM
 2  COc1cc(F)ccc1Oc1nnc(C(F)(F)F)cc1C(=O)Nc1ccnc(S(N)(=O)=O)c1 [Compound 50]       ≤ 0.2 µM
 3  COc1cc(F)ccc1Oc1nnc(C(F)(F)F)cc1C(=O)Nc1ccc2c(c1)S(=O)(=O)NC2=O [Compound 43]      1 to 5 µM
 4  Cc1cc(OC(F)(F)F)ccc1Oc1nnc(C(F)(F)F)cc1C(=O)Nc1cccc(S(N)(=O)=O)c1 [Compound 47]       ≤ 0.2 µM
 5  CS(=O)(=O)c1cc(NC(=O)c2cc(C(F)(F)F)nnc2Oc2ccc(F)cc2Cl)ccn1 [Compound 65]  0.501 to 1 µM
 6  COc1cc(F)ccc1Oc1nnc(C(F)(F)F)cc1C(=O)Nc1cccc(-n2cnnc2C)c1 [Compound 54]      1 to 5 µM
 7  COc1cc(F)ccc1Oc1nnc(C(F)(F)F)cc1C(=O)Nc1cccc(-n2ncnc2C)c1 [Compound 36]  0.501 to 1 µM
 8  O=C(Nc1ccc[n+]([O-])c1)c1cc(C(F)(F)F)nnc1Oc1ccc(F)cc1Cl [Compound 62]         > 5 µM
 9  Cc1cc(Br)ccc1Oc1nnc(C(F)(F)F)cc1C(=O)Nc1ccc(C(N)=O)cc1 [Compound 83]       ≤ 0.2 µM
10  O=C(Nc1ccnnc1)c1cc(C(F)(F)F)nnc1Oc1ccc(F)cc1Cl [Compound 63]  0.501 to 1 µM
11  COc1cc(F)ccc1Oc1nnc(C(F)(F)F)cc1C(=O)Nc1cccc(NS(C)(=O)=O)c1 [Compound 18]  0.501 to 1 µM
12  Cc1cc(F)ccc1Oc1nnc(C(F)(F)F)cc1C(=O)Nc1ccn2nnnc2c1 [Compound 135]  0.501 to 1 µM
13  CSc1ccc(NC(=O)c2cc(C(F)(F)F)nnc2Oc2ccc(F)cc2C)cc1 [Compound 32]         > 5 µM
14  COc1cc(F)ccc1Oc1nnc(C)cc1C(=O)Nc1cccc(S(C)(=O)=O)c1 [Compound 104]         > 5 µM
15  CCOc1cc(F)ccc1Oc1nnc(C)cc1C(=O)Nc1cccc(S(C)(=O)=O)c1 [Compound 108]         > 5 µM
16  Cc1cc(F)ccc1Oc1nnc(C(F)(F)F)cc1C(=O)Nc1ccc(S(N)(=O)=O)cc1 [Compound 48]      1 to 5 µM

====

Target: recombinant human NaV1.8 stably transfected HEK cells (Homo sapiens, UniProt Q9Y5Y9)
Construct: expressed in transfected cells; host or cells: HEK cells, stably transfected
Sequence (Q9Y5Y9 whole entry): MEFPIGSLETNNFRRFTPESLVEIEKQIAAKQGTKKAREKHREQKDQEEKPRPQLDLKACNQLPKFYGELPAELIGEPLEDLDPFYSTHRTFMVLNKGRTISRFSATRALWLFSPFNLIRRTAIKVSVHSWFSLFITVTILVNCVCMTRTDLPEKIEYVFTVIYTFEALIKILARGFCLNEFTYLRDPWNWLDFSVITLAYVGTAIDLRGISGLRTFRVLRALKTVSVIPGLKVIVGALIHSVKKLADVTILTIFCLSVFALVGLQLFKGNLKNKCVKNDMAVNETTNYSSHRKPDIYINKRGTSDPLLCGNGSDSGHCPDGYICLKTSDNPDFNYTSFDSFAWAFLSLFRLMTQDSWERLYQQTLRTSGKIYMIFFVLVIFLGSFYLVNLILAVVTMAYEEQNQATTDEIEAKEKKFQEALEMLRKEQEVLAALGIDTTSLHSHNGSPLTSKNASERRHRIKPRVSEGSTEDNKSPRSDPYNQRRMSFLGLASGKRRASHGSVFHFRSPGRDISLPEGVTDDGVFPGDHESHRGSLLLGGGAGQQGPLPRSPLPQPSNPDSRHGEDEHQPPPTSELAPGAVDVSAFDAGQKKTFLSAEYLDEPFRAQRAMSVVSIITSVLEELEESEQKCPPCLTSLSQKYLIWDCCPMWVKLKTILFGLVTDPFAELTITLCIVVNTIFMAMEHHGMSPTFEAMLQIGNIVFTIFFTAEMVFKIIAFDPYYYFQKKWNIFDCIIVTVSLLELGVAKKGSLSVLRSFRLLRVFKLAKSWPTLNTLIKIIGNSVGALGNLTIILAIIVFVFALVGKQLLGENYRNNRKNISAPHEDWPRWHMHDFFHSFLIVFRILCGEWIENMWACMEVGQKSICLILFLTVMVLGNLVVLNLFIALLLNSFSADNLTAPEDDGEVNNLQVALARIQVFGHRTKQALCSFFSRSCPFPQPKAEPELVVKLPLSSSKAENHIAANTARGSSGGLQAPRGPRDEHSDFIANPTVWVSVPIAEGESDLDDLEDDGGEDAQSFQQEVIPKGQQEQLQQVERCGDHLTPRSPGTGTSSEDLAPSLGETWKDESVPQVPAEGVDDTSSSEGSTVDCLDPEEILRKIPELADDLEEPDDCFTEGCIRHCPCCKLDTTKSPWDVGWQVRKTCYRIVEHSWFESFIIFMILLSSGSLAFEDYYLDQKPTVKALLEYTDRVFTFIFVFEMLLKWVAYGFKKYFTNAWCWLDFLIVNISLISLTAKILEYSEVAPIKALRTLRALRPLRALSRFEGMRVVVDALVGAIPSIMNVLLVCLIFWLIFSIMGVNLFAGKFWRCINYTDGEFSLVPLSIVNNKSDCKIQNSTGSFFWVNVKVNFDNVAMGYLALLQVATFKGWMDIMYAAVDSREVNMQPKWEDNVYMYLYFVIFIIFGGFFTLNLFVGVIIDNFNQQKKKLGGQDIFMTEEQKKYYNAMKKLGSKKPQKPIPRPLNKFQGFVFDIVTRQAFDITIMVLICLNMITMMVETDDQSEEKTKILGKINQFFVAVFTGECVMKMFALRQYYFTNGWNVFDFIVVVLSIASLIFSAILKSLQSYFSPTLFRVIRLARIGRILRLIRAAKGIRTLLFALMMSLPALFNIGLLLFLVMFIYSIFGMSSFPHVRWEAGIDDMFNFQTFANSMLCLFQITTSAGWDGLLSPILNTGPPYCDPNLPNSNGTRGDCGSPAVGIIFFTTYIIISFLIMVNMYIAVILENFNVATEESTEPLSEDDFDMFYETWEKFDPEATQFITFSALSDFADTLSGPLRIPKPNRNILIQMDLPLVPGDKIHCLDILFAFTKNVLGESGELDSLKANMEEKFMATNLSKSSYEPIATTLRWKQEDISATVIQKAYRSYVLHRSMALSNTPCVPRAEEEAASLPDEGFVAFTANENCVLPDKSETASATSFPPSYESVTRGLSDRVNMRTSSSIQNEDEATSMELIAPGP
Test: Compound profiling on NaV1.8, human NaV1.8 cell line, SyncroPatch384PE automated patch clamp assay (Example 102, first set of compounds, Table 16)
Format: cell-based
Details: inactivated state block (P2 measurement), human NaV1.8 HEK cells, Table 16 (first set of compounds), read-out: P2IC50
Experimental: Compound Profiling on NaV1.8—Human NaV1.8 Cell Line—SyncroPatch384PE Assay Compounds were tested on recombinant human NaV1.8 stably transfected HEK cells using the SyncroPatch384PE system, an automated patch clamp device. […] Compounds were tested in triplicate in 0.1% DMSO and 0.030% Pluronic Acid. […] Compounds were then applied by the SynchroPatch into each well and the current was recorded for five minutes in EC, followed by application of tetracaine to achieve full block at the end of the experiment. […]
metric name: IC50

> print(dat)
                                   compound  metric.name         result
1  CC(C)Oc1ccc(Oc2ncc(C(F)(F)F)cc2C(=O)Nc2ccc(C(N)=O)cc2)c(F)c1F         IC50    20 to 40 nM
2  Cc1c(C(F)(F)F)nnc(OCC23CC(F)(C2)C3)c1C(=O)Nc1cccc(S(C)(=N)=O)c1 (stereo not shown)         IC50  200 to 500 nM
3  COc1c(Oc2nnc(C(F)(F)F)c(C)c2C(=O)Nc2cccc(S(C)(=N)=O)c2)ccc(F)c1F (single isomer, unassigned) [Compound 1473]         IC50        ≤ 20 nM
4  COc1c(Oc2ncc(Br)cc2C(=O)Nc2ccnnc2)ccc(F)c1F         IC50        ≤ 20 nM
5  COc1cc(C#N)ccc1Oc1ncc(C(F)(F)F)cc1C(=O)Nc1cccc(S(N)(=O)=O)c1         IC50        ≤ 20 nM
6  Cc1nc(F)ccc1Oc1ncc(C(F)(F)F)cc1C(=O)Nc1cccc([S@](C)(=N)=O)c1 (single isomer, unassigned)         IC50        ≤ 20 nM
7  COc1cc(C#N)ccc1Oc1nccc(C(F)(F)F)c1C(=O)Nc1cccc(S(C)(=N)=O)c1 (stereo not shown)         IC50   40 to 200 nM

====

Molecular target: recombinant human NaV1.8 stably transfected HEK cells (Homo sapiens, UniProt Q9Y5Y9)
Construct: expressed in transfected cells; host or cells: HEK cells, stably transfected
Experiment: Compound profiling on NaV1.8, human NaV1.8 cell line, SyncroPatch384PE automated patch clamp assay (Example 102, first set of compounds, Table 16)
Format: cell-based
Settings: resting state block (P1 measurement), human NaV1.8 HEK cells, Table 16 (first set of compounds), read-out: P1IC50
metric name: IC50

> print(dat)
                                    molecule  metric.name         result
 1  COc1nc(C)c(Oc2ncc(C(F)(F)F)cc2C(=O)Nc2cccc(S(C)(=N)=O)c2)cc1F (stereo not drawn) [Compound 1639]         IC50  200 to 500 nM
 2  COc1cc(C#N)ccc1Oc1nccc(C(F)(F)F)c1C(=O)Nc1cccc(S(C)(=N)=O)c1 (stereo not drawn) [Compound 1653]         IC50   40 to 200 nM
 3  CS(=N)(=O)c1cccc(NC(=O)c2cc(C(F)(F)F)cnc2OC2CC3(C2)CC(F)(F)C3)c1 (stereo not drawn) [Compound 1632]         IC50  200 to 500 nM
 4  Cc1c(C#N)ccc(Oc2ncc(C(F)(F)F)cc2C(=O)Nc2cccc(C(N)=O)c2)c1F [Compound 1697]         IC50    20 to 40 nM
 5  Cc1ccc(Oc2nnc(C(F)(F)F)c(C)c2C(=O)Nc2cccc(S(C)(=N)=O)c2)c(C)n1 (single isomer, unassigned) [Compound 1484]         IC50  200 to 500 nM
 6  COc1ccc(Oc2nnc(C(F)(F)F)c(C)c2C(=O)Nc2cccc(S(C)(=N)=O)c2)c(C)c1F (stereo not drawn) [Compound 1504]         IC50        ≤ 20 nM
 7  CSc1cccc(Oc2ncc(C(F)(F)F)cc2C(=O)Nc2cccc(S(C)(=O)=O)c2)c1 [Compound 1656]         IC50   40 to 200 nM
 8  CC(C#N)Oc1cc(F)c(Oc2ncc(C(F)(F)F)cc2C(=O)Nc2ccc(C(N)=O)cc2)cc1F (stereo not drawn) [Compound 1688]         IC50  200 to 500 nM
 9  CC(C)Oc1ccc(Oc2ncc(C(F)(F)F)cc2C(=O)Nc2cccc(S(C)(=N)=O)c2)c(F)c1F (stereo not drawn) [Compound 1707]         IC50        ≤ 20 nM
10  CS(=O)(=O)c1cccc(NC(=O)c2cc(C(F)(F)F)cnc2Oc2cccc(S(C)(=O)=O)c2)c1 [Compound 1718]         IC50  200 to 500 nM
11  CCOC(=O)c1cc(NC(=O)c2c(Oc3ccc(F)cc3C)nnc(C(F)(F)F)c2C)cc(S(C)(=O)=O)c1 [Compound 1429]         IC50  200 to 500 nM
12  CS(=N)(=O)c1cccc(NC(=O)c2cc(C(F)(F)F)cnc2Oc2ccc(OCc3ccccc3)cc2)c1 (stereo not drawn) [Compound 1587]         IC50   40 to 200 nM
13  Cc1c(C(F)(F)F)nnc(Oc2c(F)cc(OC(F)(F)F)cc2F)c1C(=O)Nc1cccc(S(C)(=N)=O)c1 (stereo not drawn) [Compound 1514]         IC50   40 to 200 nM
14  COc1cc(C#N)ccc1Oc1nnc(C(F)(F)F)c(C)c1C(=O)Nc1cccc(C(=O)N2CC(O)C2)c1 [Compound 1437]         IC50   40 to 200 nM
15  COc1c(Oc2nnc(C(F)(F)F)c(C)c2C(=O)Nc2cccc(S(C)(=N)=O)c2)ccc(F)c1F (stereo not drawn) [Compound 23]         IC50        ≤ 20 nM
